- MEASURED_TARGET: T1, human SAS1B (Homo sapiens, UniProt Q6HA08)
- T1 construct: made in house; host or cells: E. coli
- T1 sequence (Q6HA08 24-431): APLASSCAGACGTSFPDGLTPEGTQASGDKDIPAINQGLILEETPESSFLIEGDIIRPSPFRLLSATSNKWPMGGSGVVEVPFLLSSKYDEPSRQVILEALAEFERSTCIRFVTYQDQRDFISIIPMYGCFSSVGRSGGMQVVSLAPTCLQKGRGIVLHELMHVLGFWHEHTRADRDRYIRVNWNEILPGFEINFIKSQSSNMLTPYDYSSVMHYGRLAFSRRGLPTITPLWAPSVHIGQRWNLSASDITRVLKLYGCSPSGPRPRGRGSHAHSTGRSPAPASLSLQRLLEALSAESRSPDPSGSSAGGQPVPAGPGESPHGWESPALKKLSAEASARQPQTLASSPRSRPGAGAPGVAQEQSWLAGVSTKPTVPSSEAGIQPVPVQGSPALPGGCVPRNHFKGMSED
- PROCEDURE_DETAILS: Western blot of human SAS1B probed with anti-human SAS1B murine mAbs
- Format: binding
- CONDITIONS: Table 1
QUANTITY_KIND: Specifically binds human SAS1B (and not mouse SAS1B)

- MOLECULE: "SB3: mouse anti-human SAS1B monoclonal antibody, IgG2b; VH SEQ ID NO:14, VL SEQ ID NO:15 (antibody, listed as Mus musculus, V domains shown) VH: EVQLQQSGPELVKPGSSVKISCKASGYTFTDYNMVWVKQSHGKSLEWIGAVNPNNGGTSYNQKFKGKATLTVDKSSSTAYMELRSLTSEDSAVYYCVPNWDWFAYWGQGTLVTVSA VL: DVLMTQTPLSLPVSLGDQASISCRSSQSLVHSNGNTYLEWYLQKPGQSPNLLIYKVSNRFSGVPDRFSGSGSGTDFTLKISRVEAEDLGVYYCFQGSHVPFTFGSGTKLEIK"
  RESULT: "Yes"
- MOLECULE: "SB7: mouse anti-human SAS1B monoclonal antibody, IgG2b; VH SEQ ID NO:16, VL SEQ ID NO:18 (antibody, listed as Mus musculus, V domains shown) VH: EVQLQQSGPELVKPGSSVKISCKPSGYTFTDYNMVWMKQSHGKSLEWIGAINPNNGGTTYNQKFKGKATLTVDKSSSTAYMELRSLTSEDSAVYYCAPNWDWFAYWGQGTLVTVSA VL: DVLMTQIPLSLPVSLGDQASISCRSSQSILHSNGNTYLEWYLQKPGQSPKLLIYKVSNRFSGVPDRFSGSGSGTDFTLKISRVEAEDLGVYYCFQGSHVPFTFGSGTKLEIK"
  RESULT: "Yes"
- MOLECULE: "SB4: mouse anti-human SAS1B monoclonal antibody, IgG2a; VH SEQ ID NO:16, VL SEQ ID NO:17 (antibody, listed as Mus musculus, V domains shown) VH: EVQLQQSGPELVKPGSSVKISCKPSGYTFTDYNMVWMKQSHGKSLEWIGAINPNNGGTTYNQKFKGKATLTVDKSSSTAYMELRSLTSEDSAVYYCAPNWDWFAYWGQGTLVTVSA VL: DVLMTQTPLSLPVSLGDQASISCRSSQSILHSNGNTYLEWYLQKPGQSPKLLIYKVSNRFSGVPDRFSGSGSGTDFTLKISRVEAEDLGVYYCFQGSHVPFTFGSGTKLEIK"
  RESULT: "Yes"
